- System: Plasmodium falciparum
- assay-comment: GSK_TCMDC: Inhibition of Plasmodium falciparum 3D7 in whole erythrocytes, using parasite LDH activity as an index of growth.
- Assay type: functional, organism-based
- condition: Plasmodium falciparum, 3D7
XC50 for assorted compounds
Remember to put the unit after the number in your answer.

Here are 4 compounds together with their reported answers.
[Q] Check Plasmodium falciparum data and give XC50 for CO/C(=C\C=C\c1cc2cc(Cl)c(Cl)cc2[nH]1)C(=O)NCCCN1CCN(c2cccc(OC)c2)CC1 .
[A] 845 nM

[Q] Tell me its XC50 on Plasmodium falciparum: Cc1nc(C)c(-c2ccc(Oc3ccc(Cl)c(Cl)c3)cc2)c(O)c1Br
[A] 304 nM

[Q] State measured XC50 of the compound O=C(C=Cc1ccc(Cl)c(Cl)c1)NCCCCCN1CCCC(CCCNC(=O)/C=C/c2ccccc2)C1 (stereo not given) with Plasmodium falciparum.
[A] 593 nM

[Q] Output reported XC50 of the compound CCCNC(=O)C1Cc2cc(OC)c(OC)cc2C2(N1)C(=O)N(Cc1cccc(OC)c1)c1ccccc12 (stereo not given) on Plasmodium falciparum.
[A] 863 nM

Here is another compound to look at.
[Q] Under Plasmodium falciparum: report XC50 of COc1ccc(C2CCN(CCCCNC(=O)c3ccc(NC(=O)c4ccc(Cl)cc4)cc3)C2)c(OC)c1 (stereo not given) .
[A] 1200 nM
